tgt: BaF3 (EGFR Del19/C797S) (Homo sapiens, UniProt P00533, C797S, cells depend on it, form not given)
Construct: BaF3 (EGFR Del19/C797S)|DC|RPMI1640 + 10% FBS
Sequence (P00533 with tags, fused parts or gaps DEL746-750/C797S, form open): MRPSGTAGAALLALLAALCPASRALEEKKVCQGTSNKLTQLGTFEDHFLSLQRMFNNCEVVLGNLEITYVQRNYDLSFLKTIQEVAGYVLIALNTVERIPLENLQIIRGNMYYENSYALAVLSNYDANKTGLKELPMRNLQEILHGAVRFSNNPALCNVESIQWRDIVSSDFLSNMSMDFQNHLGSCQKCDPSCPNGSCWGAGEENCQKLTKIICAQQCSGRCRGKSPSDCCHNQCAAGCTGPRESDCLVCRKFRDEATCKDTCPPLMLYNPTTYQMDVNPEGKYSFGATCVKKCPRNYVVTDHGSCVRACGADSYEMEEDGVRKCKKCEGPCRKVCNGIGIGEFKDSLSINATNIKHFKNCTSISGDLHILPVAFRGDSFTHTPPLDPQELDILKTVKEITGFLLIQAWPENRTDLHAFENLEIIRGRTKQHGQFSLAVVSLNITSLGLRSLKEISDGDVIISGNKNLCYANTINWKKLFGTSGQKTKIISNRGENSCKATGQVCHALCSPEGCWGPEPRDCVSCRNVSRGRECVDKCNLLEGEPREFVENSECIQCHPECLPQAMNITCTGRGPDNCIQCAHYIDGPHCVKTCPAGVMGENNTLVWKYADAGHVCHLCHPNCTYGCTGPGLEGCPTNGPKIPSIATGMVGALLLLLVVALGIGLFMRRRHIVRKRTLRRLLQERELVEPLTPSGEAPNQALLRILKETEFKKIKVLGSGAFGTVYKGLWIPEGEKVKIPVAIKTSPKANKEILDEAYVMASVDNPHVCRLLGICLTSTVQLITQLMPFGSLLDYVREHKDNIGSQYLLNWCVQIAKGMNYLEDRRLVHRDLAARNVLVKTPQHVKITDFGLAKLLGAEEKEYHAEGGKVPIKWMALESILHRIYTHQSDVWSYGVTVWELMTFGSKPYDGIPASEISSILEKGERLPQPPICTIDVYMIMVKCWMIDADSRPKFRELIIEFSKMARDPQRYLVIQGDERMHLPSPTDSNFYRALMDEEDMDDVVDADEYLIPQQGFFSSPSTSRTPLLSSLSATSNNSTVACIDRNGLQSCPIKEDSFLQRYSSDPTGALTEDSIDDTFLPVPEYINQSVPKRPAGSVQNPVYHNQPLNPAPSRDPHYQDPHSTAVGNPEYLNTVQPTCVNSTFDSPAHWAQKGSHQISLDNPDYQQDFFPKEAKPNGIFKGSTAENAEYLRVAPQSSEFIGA
assay_procedure: Cell proliferation IC50 assay (Cell Titer GLO), BaF3 DC cells
Assay type: cell-based, mouse
condition_details: Table 6, 72 h
pIC50: −log10 of the molar value.

>  <compound>
CCc1cc(Nc2ncc(Cl)c(Nc3ccccc3N(C)S(C)(=O)=O)n2)c(OC)cc1N1CCC(N2CCN(CCC#Cc3cccc4c3CN(C3CCC(=O)NC3=O)C4=O)CC2)CC1 (centres unmarked)

>  <pIC50>
8.25

$$$$
>  <compound>
COc1cc(N2CCC(N3CCN(CCC#Cc4cccc5c4CN(C4CCC(=O)NC4=O)C5=O)CC3)CC2)c(C(N)=O)cc1Nc1ncc(Cl)c(Nc2ccccc2P(C)(C)=O)n1 (centres unmarked)

>  <pIC50>
7.42

$$$$
>  <compound>
CCc1cc(Nc2ncc(Cl)c(Nc3ccccc3P(C)(C)=O)n2)c(OC)cc1N1CCC(N2CCN(CCCCOc3ccc4c(c3F)CN(C3CCC(=O)NC3=O)C4=O)CC2)CC1 (centres unmarked)

>  <pIC50>
7.64

$$$$
>  <compound>
CCc1cc(Nc2ncc(-n3ccnc3)c(Nc3ccccc3P(C)(C)=O)n2)c(OC)cc1N1CCC(N2CCN(CCOc3cccc4c3CN(C3CCC(=O)NC3=O)C4=O)CC2)CC1 (centres unmarked)

>  <pIC50>
8.46

$$$$
>  <compound>
CCc1cc(Nc2ncc(Cl)c(Nc3ccc4[nH]ncc4c3P(C)(C)=O)n2)c(OC)cc1N1CCC(N2CCN(CCC#Cc3cccc4c3CN(C3CCC(=O)NC3=O)C4=O)CC2)CC1 (centres unmarked)

>  <pIC50>
7.85

$$$$
